assay comment: NCI Yeast Anticancer Drug Screen. Data for the mlh1 rad18 strain (AID 175)
settings: S. cerevisiae mlh1 rad18 strain growth inhibition; at 50.0 µM; hits give high values
The panel holds about 79,000 compounds, 15% with a hit somewhere; the sample as a whole holds those more often.
I'd appreciate it if you could supply growth inhibition values for the items below.
Numeric only. Scale: %

Q: Look at this molecule and give its reported growth inhibition. `O=CNc1ccc(-c2ccc(NC=O)cc2)cc1`
Result: -6.4

Q: Also check `CCC(=O)/C=C/C1=C(C)CCCC1(C)C`
Result: -13.4

Q: Also check `N#CCCN(c1ccc(C=Nc2ccc(C(=O)O)cc2)cc1)S(=O)(=O)c1ccccc1`
Result: -11.1

Q: Also check `Cn1c(=O)c2c(nc(CCC(N)=O)n2C)n(C)c1=O`
Result: 12.7

Q: Also check `Nc1nc(N)c2nonc2n1`
Result: 2

Q: Also check COP(=O)(OC)C(Cc1cn(C(C)=O)c2ccccc12)C(=O)O (configuration not stated)
Result: -37.5

Q: Also check `CCCCCNN`
Result: 26.6

Q: Also check `NC1=NS(=O)(=O)Nc2nc(-c3ccccc3)c(-c3ccccc3)nc21`
Result: 7.3

Q: Also check `CCCCCCCCCCCC[N+](C)(C)Cc1cc(=O)c(O)co1`
Result: 27.2

Q: Also check CC1CCCCN1C(CC(=O)c1ccccc1)C(=O)c1ccccc1 (configuration not stated)
Result: 38.7

Q: Also check `O=C(CO)CC(=O)C(=O)Nc1ccccc1`
Result: -9.9

Q: Also check `COC(=O)C(C)(C)N=CN(C)C`
Result: 3.55
